# TESTED SYSTEM: APC11/APC2 (Homo sapiens, UniProt Q9NYG5+Q9UJX6)
# Sequence (Q9NYG5 whole entry): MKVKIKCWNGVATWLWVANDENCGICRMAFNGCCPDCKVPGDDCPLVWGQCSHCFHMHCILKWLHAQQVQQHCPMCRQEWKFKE
# Sequence (Q9UJX6 whole entry): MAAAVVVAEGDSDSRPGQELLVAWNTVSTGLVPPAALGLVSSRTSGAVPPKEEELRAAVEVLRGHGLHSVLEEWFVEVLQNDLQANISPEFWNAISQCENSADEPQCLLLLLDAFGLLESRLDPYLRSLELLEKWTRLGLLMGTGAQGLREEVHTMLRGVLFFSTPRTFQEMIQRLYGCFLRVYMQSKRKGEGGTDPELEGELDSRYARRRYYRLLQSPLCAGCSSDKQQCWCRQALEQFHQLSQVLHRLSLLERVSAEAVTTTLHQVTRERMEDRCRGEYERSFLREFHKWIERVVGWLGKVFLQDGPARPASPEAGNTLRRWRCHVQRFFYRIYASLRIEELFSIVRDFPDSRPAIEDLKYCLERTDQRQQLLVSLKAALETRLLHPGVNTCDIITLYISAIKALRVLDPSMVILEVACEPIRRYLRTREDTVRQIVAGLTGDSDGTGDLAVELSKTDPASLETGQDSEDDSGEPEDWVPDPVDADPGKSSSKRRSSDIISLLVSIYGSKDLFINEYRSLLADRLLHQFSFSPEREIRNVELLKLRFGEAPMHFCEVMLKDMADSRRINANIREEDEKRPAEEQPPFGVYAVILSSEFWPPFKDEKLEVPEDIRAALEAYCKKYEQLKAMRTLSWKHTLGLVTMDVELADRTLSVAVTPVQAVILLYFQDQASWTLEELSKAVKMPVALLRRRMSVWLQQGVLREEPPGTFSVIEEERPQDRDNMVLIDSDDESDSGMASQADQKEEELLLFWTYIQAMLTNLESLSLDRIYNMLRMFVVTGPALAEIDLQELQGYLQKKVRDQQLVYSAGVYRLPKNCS
# ASSAY TEXT: APC-11/APC-2 ligase assay (APC auto ubiquitination)
# STATED CONDITIONS: APC assay
pIC50: −log10 of the molar value.
RECORDED ENDPOINT: pIC50

A selection of reference data follows.
{"COMPOUND": "Cc1ccc(-c2ccc([N+](=O)[O-])c3nonc23)cc1C [compound 472]", "READING": "4.70 to 6.00"}
{"COMPOUND": "Cc1cccc(-c2cc(C(F)(F)F)cc3nonc23)c1C [compound 473]", "READING": "≤ 4.70"}
{"COMPOUND": "O=[N+]([O-])c1ccc(Nc2ccccc2F)c2nonc12 [compound 401]", "READING": "≤ 4.70"}
{"COMPOUND": "O=C(Nc1cccc2nonc12)C1CN(c2ncccc2Cl)C1 [compound 486]", "READING": "4.70 to 6.00"}

Then there is this compound:
The recorded pIC50 for O=S(=O)(Nc1ccccc1F)c1ccc(Cl)c2nonc12 [compound 345] is ≤ 4.70

====

# TESTED SYSTEM: TRAF6/Uev1A/Ubc13 (Homo sapiens)
# Sequence (Q9Y4K3 1-522): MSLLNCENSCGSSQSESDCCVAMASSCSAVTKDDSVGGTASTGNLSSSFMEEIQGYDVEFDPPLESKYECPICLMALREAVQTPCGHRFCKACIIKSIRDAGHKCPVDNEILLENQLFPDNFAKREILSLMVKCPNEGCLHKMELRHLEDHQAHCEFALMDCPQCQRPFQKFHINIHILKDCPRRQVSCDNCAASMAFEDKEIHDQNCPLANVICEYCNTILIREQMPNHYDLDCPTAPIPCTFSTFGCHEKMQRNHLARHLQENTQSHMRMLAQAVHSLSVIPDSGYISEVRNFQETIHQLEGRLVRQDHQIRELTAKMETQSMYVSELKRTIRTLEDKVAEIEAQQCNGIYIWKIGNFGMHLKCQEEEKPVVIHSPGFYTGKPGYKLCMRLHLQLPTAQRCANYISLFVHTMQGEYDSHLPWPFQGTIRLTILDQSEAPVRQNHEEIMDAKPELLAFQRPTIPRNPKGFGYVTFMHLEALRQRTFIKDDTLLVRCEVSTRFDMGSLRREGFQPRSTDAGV
# ASSAY TEXT: TRAF6/Uev1A/Ubc13 plate-based ubiquitin ligase assay
RECORDED ENDPOINT: IC50

Answered examples (8):
{"COMPOUND": "COc1ccc(Cl)cc1NS(=O)(=O)c1ccc(Cl)c2nonc12", "TESTED SYSTEM": "TRAF6/Uev1A/Ubc13 (Homo sapiens)", "IC50": "1 to 20 µM"}
{"COMPOUND": "CC1CC(C)CN(S(=O)(=O)c2ccc(Cl)c3nonc23)C1 (stereo not drawn)", "TESTED SYSTEM": "TRAF6/Uev1A/Ubc13 (Homo sapiens)", "IC50": "≥ 20 µM"}
{"COMPOUND": "O=[N+]([O-])c1ccc(N2CCNCC2)c2nonc12", "TESTED SYSTEM": "TRAF6/Uev1A/Ubc13 (Homo sapiens)", "IC50": "≥ 20 µM"}
{"COMPOUND": "Cc1cc(C)c(NS(=O)(=O)c2ccc(Cl)c3nonc23)c(C)c1", "TESTED SYSTEM": "TRAF6/Uev1A/Ubc13 (Homo sapiens)", "IC50": "≥ 20 µM"}
{"COMPOUND": "Cc1ccc(F)cc1NS(=O)(=O)c1cccc2nonc12", "TESTED SYSTEM": "TRAF6/Uev1A/Ubc13 (Homo sapiens)", "IC50": "≥ 20 µM"}
{"COMPOUND": "COC(=O)c1ccc(Cl)cc1Nc1ccc(S(=O)(=O)Nc2cc(Cl)ccc2C(=O)OC)c2nonc12", "TESTED SYSTEM": "TRAF6/Uev1A/Ubc13 (Homo sapiens)", "IC50": "1 to 20 µM"}
{"COMPOUND": "FC(F)(F)c1cccc(-c2cccc3nonc23)c1", "TESTED SYSTEM": "TRAF6/Uev1A/Ubc13 (Homo sapiens)", "IC50": "≥ 20 µM"}
{"COMPOUND": "O=C(CN1CCN(c2ccc([N+](=O)[O-])c3nonc23)CC1)N1CCOCC1", "TESTED SYSTEM": "TRAF6/Uev1A/Ubc13 (Homo sapiens)", "IC50": "≥ 20 µM"}

Now for a further compound.
Entry CC(C)c1ccccc1NS(=O)(=O)c1ccc(Cl)c2nonc12 ; IC50 = ≥ 20 µM

====

# TESTED SYSTEM: APC11/APC2 (Homo sapiens, UniProt Q9NYG5+Q9UJX6)
# ASSAY TEXT: APC-11/APC-2 ligase assay (APC auto ubiquitination)
# STATED CONDITIONS: APC assay
# Description: For the assays described below, the TRAF6/Uev1A/UBC13 assay is the biochemical plate-based assay of TRAF6 ligase activity using Ubc13 as the E2 enzyme. […] E3 (His APC11/APC2— “APC”) auto ubiquitination was measured as described in U.S. patent application Ser. No. 09/826,312 (Publication No. U.S. 2002 0042083 A1), which is incorporated by reference in its entirety. […] Activity in the presence of the compound was determined relative to a parallel control in which only DMSO was added. […]
RECORDED ENDPOINT: IC50

{"SMILES INPUT": "Cc1cccc(-c2cc(N3CCCCC3)c([N+](=O)[O-])c3nonc23)c1", "IC50": "≥ 20 µM"}

// sample O=S(=O)(NCC1CCCCC1)c1ccc(Cl)c2nonc12 , its IC50 was ≥ 20 µM

# molecule O=[N+]([O-])c1ccc(-c2ccc(F)cc2)c2nonc12 ; its IC50 = ≥ 20 µM

So for COc1cccc(NS(=O)(=O)c2c(Cl)ccc3nonc23)c1OC , the logged IC50 turned out to be ≥ 20 µM

====

# TESTED SYSTEM: TRAF6/Uev1A/Ubc13 (Homo sapiens, UniProt Q9Y4K3)
# Sequence (Q9Y4K3 1-522): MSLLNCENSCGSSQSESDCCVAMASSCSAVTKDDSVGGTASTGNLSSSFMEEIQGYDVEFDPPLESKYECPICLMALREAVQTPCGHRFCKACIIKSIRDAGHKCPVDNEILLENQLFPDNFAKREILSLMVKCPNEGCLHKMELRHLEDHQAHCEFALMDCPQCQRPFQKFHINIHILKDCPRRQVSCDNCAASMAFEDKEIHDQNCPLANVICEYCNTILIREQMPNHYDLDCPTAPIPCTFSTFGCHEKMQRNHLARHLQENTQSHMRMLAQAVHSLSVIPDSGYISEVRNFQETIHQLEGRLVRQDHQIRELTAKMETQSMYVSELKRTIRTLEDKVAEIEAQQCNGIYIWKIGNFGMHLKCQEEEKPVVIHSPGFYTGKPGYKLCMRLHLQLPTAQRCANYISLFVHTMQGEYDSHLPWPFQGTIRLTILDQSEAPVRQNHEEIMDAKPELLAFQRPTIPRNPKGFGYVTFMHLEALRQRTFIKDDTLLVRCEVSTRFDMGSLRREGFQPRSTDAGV
# ASSAY TEXT: TRAF6/Uev1A/Ubc13 plate-based ubiquitin ligase assay
pIC50: −log10 of the molar value.
RECORDED ENDPOINT: pIC50

Recorded results for 3 compounds are shown here.
{"COMPOUND": "Nc1ccc(Nc2cccc(F)c2F)c2nonc12 [compound 396]", "READING": "≤ 4.70"}
{"COMPOUND": "O=S(=O)(Nc1cccc2ccccc12)c1ccc(Sc2cccc3cccnc23)c2nonc12 [compound 407]", "READING": "4.70 to 6.00"}
{"COMPOUND": "Cc1ccc(N2CCN(c3ccc([N+](=O)[O-])c4nonc34)CC2)cc1C [compound 140]", "READING": "4.70 to 6.00"}

GET /value?item= CC1(C)CCN(c2ccc([N+](=O)[O-])c3nonc23)CC1 [compound 242] &field=pIC50 returns ≤ 4.70

The recorded pIC50 for entry O=S(=O)(c1ccc(Cl)c2nonc12)N1CCN(c2ncccn2)CC1 [compound 184] equals ≤ 4.70

Entry O=[N+]([O-])c1ccc(N2CCN(c3ncc(C(F)(F)F)cc3Cl)CC2)c2nonc12 [compound 315] , pIC50 reported as > 6.00

====

# TESTED SYSTEM: APC11/APC2 (Homo sapiens, UniProt Q9NYG5+Q9UJX6)
# ASSAY TEXT: APC-11/APC-2 ligase assay (APC auto ubiquitination)
# STATED CONDITIONS: APC assay
pIC50: −log10 of the molar value.
RECORDED ENDPOINT: pIC50

{"COMPOUND": "FC(F)(F)c1cccc(-c2cc(-c3cccc(C(F)(F)F)c3)c3nonc3c2)c1 [compound 418]", "pIC50": "≤ 4.70"}
{"COMPOUND": "O=[N+]([O-])c1ccc(-c2cc(F)cc(F)c2)c2nonc12 [compound 308]", "pIC50": "4.70 to 6.00"}
{"COMPOUND": "O=S(=O)(Nc1cccc(F)c1F)c1ccc(Sc2ccc(O)cc2)c2nonc12 [compound 402]", "pIC50": "4.70 to 6.00"}
{"COMPOUND": "Cc1cccc(C)c1NS(=O)(=O)c1ccc(Cl)c2nonc12 [compound 353]", "pIC50": "≤ 4.70"}
{"COMPOUND": "O=S(=O)(Nc1c(F)cccc1F)c1c(Cl)cc(Cl)c2nonc12 [compound 414]", "pIC50": "4.70 to 6.00"}
{"COMPOUND": "COc1cc(NS(=O)(=O)c2c(Cl)ccc3nonc23)c(OC)cc1Cl [compound 343]", "pIC50": "≤ 4.70"}
{"COMPOUND": "CC(C)(C)c1ccc(-c2cc3cc(O)ccc3c3nonc23)cc1 [compound 454]", "pIC50": "4.70 to 6.00"}
{"COMPOUND": "O=[N+]([O-])c1ccc(-c2ccc(C(F)(F)F)cc2)c2nonc12 [compound 311]", "pIC50": "4.70 to 6.00"}

Okay, next one:
Lab note: Cc1ccc(NS(=O)(=O)c2ccc(Cl)c3nonc23)c(Cl)c1 [compound 354] gave pIC50 of ≤ 4.70
